- System: K4 kissing-loop RNA reporter;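 further: bound reporter read as fluorescence of individual clusters on recovered sequencing chips by microscopy, with normalized cluster intensities fitted with a binding model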
- assay procedure: apparent KD of K4 kissing-loop reporter; higher = weaker reporter binding
- condition details: Eterna round: R107; input ligand: FMN 200 uM

sequence code | apparent KD of K4 kissing-loop reporter (nM)
GGGAGUGAUGUUCCCGCGUUGACGGUCCUCCGAGGACCGGUACGGCCGCCACUCGAAACCCAGUGAUGUUGGGACUCACCGUACU [Exclusion Tryptophan A GF 11] | 511
GAGAUAGAGGCGGCCGCCACUAGUGAUGUUAGUGAUGUUAGAUAGAGAAUAGAACAGAGAUAGGAUAGGACCGGGCCAGAUAGAG [Tryptophan B Exclusion; Euphoria Solution] | 69.4
AAAGUGUCAGCACGAGUGAUGUUCGACGAUACCAGCCUCGAUAGAGGCCCUUGGCAGCGUAAACCAAGGGCUGGCACAAAAUAAA [#SwitchBubble 6 #K4Early] | 1050
AACUUAAUUUAUAAGCAGUGAUGUUGCUCACGAGGACCGGUACGGCCGCCACUCGAUCGGACUUAGGUCUUCAAUUAUUUCAUUA [JR_ExcTryptoA_Sub017] | 149
GGAGGAGAAUAUGAUACCAGCAGAGAGAGAUACGAAGUAUAGUGAUGUUAUAUGAGAGAAUGCCCUUGGCAGCAUAAGACGCAGG [#08 K4 Theophylline B Same State] | 86
UGUGGAGGAUAUGAUACCAGCAGUGAGAGAGAGGAAGUAUAGUGAUGUUAUAUGAGAGAAUGCCCUUGGCAGCGUGUGUAGUGGG [SSTheophylB.K] | 184

---

- Test system: MS2 coat protein
- assay procedure: apparent KD of MS2 coat protein; higher = weaker reporter binding
- condition details: Eterna round: R107; input ligand: theophylline 20 uM
Please map values of apparent KD of MS2 coat protein to classes as shown: label 0: < 30 nM; label 1: ≥ 30 nM and < 70 nM; label 2: ≥ 70 nM

sequence code | measured target | label class
ACAUGAGGAUCACCCAUGUCAGGGCACGAUACCAGCUGAUCCGGUGGCCCUUGGCAGCGUGACGAGUGGUCAUGAGGAUCACACG [?fmullin] | MS2 coat protein | label 2
ACAUGAGGAUCACCCAUGUAGCGUAGGGAAGGAGCGGAAUAAAGUCCAGGUAGGUCGCCCAUAUGAUGAUCUCACUUAUUAUCGA [#12 Same State - Arginine A] | MS2 coat protein | label 1
AGUAGUUGACAAAAGUCAGCUACAAUUGAAGGAGCGGGAUCCUUCCCAGGUAGGUCGCAAUAACAUGAGGAUCACCCAUGUCAAA [ArgAS 4 #BothOrNeither #OpenEnded] | MS2 coat protein | label 0
UUCACAUGAUCUGAAUAUACAGAAAAGAAACGAGGACCGGUACGGCCGCCACUCGUGCCGGAAACAUGAGGAUCACCCAUGUGUU [AK1.3 Exclusion TrypA mod IceBolt] | MS2 coat protein | label 0
GAGUAGAGGACGGCCGCCACUGAACAUGAGGAUCACCCAUGUCGUGAUCCGUUACCUAAAGAAGAUAGGACCGGGUCAUGUACUC [Exclusion Tryptophan B GF 19] | MS2 coat protein | label 1
UGUAUGGACUGAAGGAGCGGGUUGAUAACCUGAGGAUCAUCCAGGUAAAAGGCGAAAGCCGCCCAGGUAGGUCGCAGUCCAUACU | MS2 coat protein | label 2
AUCUUUGAUGAUCUGGGAAAACCAGAUCGGCGAGGACCGGUACGGCCGCCACUCGUGUAUAAUAUACAUGAGGAUCACCCAUGUA [#20 Tryptophan A Same State] | MS2 coat protein | label 2
CUCCCGUGGUCGGCCGCCACUGGAGGCCUCGCGCGACAUGAGGAUCACCCAUGUUGGCCCGGCUUCAGGACCGGGAUCGCGUGAG [#1 Same State - Tryptophan B Attempt #8 (HarryS)] | MS2 coat protein | label 0
UCACAUGAGGAUCACCCAUGUCCAGGUGAAGGAGCGAUUAGGGAGUCAGGUAGGUCGCACCACAUGAGGAUCACCCAUGUGCCUG [EAA NP+V+V2 #8 DOUBLE] | MS2 coat protein | label 0
ACAUGAAUAUCAUCUAUUUAUUGUACUGAAGGAGCGUCCAUGAGGACAGGUAGGUCGCAGUGUAAAACAUGAGGAUCACCCAUGU [Same State - Arginine A #1] | MS2 coat protein | label 1
UGCGUACAUGAGGAUCACCCAUGUAUAGAUACCAGUCACCCAUGUGGCCCUUGGCAGCUAACAUGAGGAUCACUACAUGAGGAUC [Exclusion Theophylline A 3] | MS2 coat protein | label 2

Source: the supplement of paper PMC9170038
